System: MTAP-deleted lung cancer cells (A549)
measurement description: Cell proliferation of MTAP-deleted A549 cells by MTT assay, mizoribine base pre-treatment then L-alanosine
Format: cell-based
setup conditions: Homo sapiens, A549, A549, 24 hours pre-treatment with 25 micromolar mizoribine base
attribute measured: IC50 (nM)
Enter your answer as a number in nM; do not include the unit.

query: Look up IC50 with MTAP-deleted lung cancer cells (A549) for this compound: N[C@@H](CN(O)N=O)C(=O)O [L-alanosine]
result: 250

###

Tested on: MTAP-deleted chronic myelogenous leukemia cells (K562)
measurement description: Cell proliferation of MTAP-deleted K562 cells by MTT dye assay
Type: cell-based
setup conditions: Homo sapiens; K562, 48 hours of incubation; read-out: IC50 (amount of drug needed to block proliferation by 50%)
attribute measured: IC50

query: If you can, please state the reported IC50 value of NC(=O)c1ncn([C@@H]2O[C@H](CO)[C@@H](O)[C@H]2O)c1O [mizoribine] .
result: ~100 µM
